details: mouse, in vivo, sc, 50 mg/kg
e = 2'-O-(2-methoxyethyl) (MOE); d = 2'-deoxy (DNA)
Reported Platelets values for a set of substances

Consider the following illustrative entries.
>>> value("ISIS 416848: MOE gapmer, nucleobases 1275 to 1318 of SEQ ID NO: 1 (Table 8) (antisense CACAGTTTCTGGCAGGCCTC; MOE gapmer, wing and gap sizes not given here)")
"953 10^3/μL"
>>> value("ISIS 413482: 5-10-5 MOE gapmer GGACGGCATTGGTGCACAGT (sugars from the 5' end e5 d10 e5, backbone and methylation of C not given here)")
"818 10^3/μL"
>>> value("ISIS 416864: MOE gapmer, nucleobases 1275 to 1318 of SEQ ID NO: 1 (Table 8) (antisense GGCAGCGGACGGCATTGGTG; MOE gapmer, wing and gap sizes not given here)")
"750 10^3/μL"
>>> value("ISIS 416866: MOE gapmer, nucleobases 1275 to 1318 of SEQ ID NO: 1 (Table 8) (antisense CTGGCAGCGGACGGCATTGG; MOE gapmer, wing and gap sizes not given here)")
"1045 10^3/μL"
>>> value("ISIS 416859: MOE gapmer, nucleobases 1275 to 1318 of SEQ ID NO: 1 (Table 8) (antisense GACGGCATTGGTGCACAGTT; MOE gapmer, wing and gap sizes not given here)")
"826 10^3/μL"

Exam item: Please give measured Platelets of the following entry: ISIS 416862: MOE gapmer, nucleobases 1275 to 1318 of SEQ ID NO: 1 (Table 8) (antisense AGCGGACGGCATTGGTGCAC; MOE gapmer, wing and gap sizes not given here)
Marked response: 1007 10^3/μL

Exam item: Please give measured Platelets of the following entry: ISIS 416863: MOE gapmer, nucleobases 1275 to 1318 of SEQ ID NO: 1 (Table 8) (antisense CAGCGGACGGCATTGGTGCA; MOE gapmer, wing and gap sizes not given here)
Marked response: 1131 10^3/μL

Exam item: Please give measured Platelets of the following entry: ISIS 416849: MOE gapmer, nucleobases 1275 to 1318 of SEQ ID NO: 1 (Table 8) (antisense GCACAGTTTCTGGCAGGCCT; MOE gapmer, wing and gap sizes not given here)
Marked response: 744 10^3/μL

Exam item: Please give measured Platelets of the following entry: ISIS 412224: 5-10-5 MOE gapmer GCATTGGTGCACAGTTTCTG (sugars from the 5' end e5 d10 e5, backbone and methylation of C not given here)
Marked response: 647 10^3/μL

###

experiment: Body and organ weights of cynomolgus monkeys (Example 45); format: in vivo; conditions: day 36; escalating dose regimen
Doc: threshold 3000 g (exclusive). Items with body weights beneath it return yes (1); others return no (0).

Take a look at these entries with their results.
>>> cat("ISIS 416850: MOE gapmer, nucleobases 1275 to 1318 of SEQ ID NO: 1 (Table 8) (antisense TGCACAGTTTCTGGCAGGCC; MOE gapmer, wing and gap sizes not given here)")
"yes (1)"
>>> cat("ISIS 416858: MOE gapmer, nucleobases 1275 to 1318 of SEQ ID NO: 1 (Table 8) (antisense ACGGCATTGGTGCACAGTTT; MOE gapmer, wing and gap sizes not given here)")
"yes (1)"
>>> cat("ISIS 416838: MOE gapmer, nucleobases 1018 to 1042 of SEQ ID NO: 1 (Table 6) (antisense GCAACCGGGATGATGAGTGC; MOE gapmer, wing and gap sizes not given here)")
"yes (1)"
>>> cat("ISIS 416864: MOE gapmer, nucleobases 1275 to 1318 of SEQ ID NO: 1 (Table 8) (antisense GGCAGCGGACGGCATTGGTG; MOE gapmer, wing and gap sizes not given here)")
"no (0)"

As a next step, examine the substance that follows.
Exam item: Take the substance ISIS 417002: MOE gapmer, nucleobases 1275 to 1318 of SEQ ID NO: 1 (Table 8) (antisense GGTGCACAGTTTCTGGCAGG; MOE gapmer, wing and gap sizes not given here) and say whether its body weights is less than 3000 g.
Marked response: yes (1)
